Test: Compound was tested for acute toxicity when administered intraperitoneally in mice
Assay type: organism-based
Conditions: mouse, in vivo, ip
experimentalEndpoint: LD50 (mg/kg)
Give bare numbers, in mg/kg.

Ask: Given the entry CCc1ccc(-c2nc3ccccc3[nH]2)nc1 , report its measured LD50.
Result: 1230

---

Assay: Compound was evaluated for lethal dose in mice when administarted intraperitoneally
Type: toxicity, organism-based
Conditions: mouse, in vivo, ip
Answer each item with its documented LD50.
One number for each entry, in mg/kg.

Answered cases to consult:
>>> reportedresult("Cc1cccc(-c2nc3cc(Cl)ccc3[nH]2)n1")
1230
>>> reportedresult("CCc1ccc(-c2nc3ccccc3[nH]2)nc1")
1230
>>> reportedresult("COc1ccc2[nH]c(-c3cccc(C)n3)nc2c1")
3730
>>> reportedresult("Cc1ccc2[nH]c(-c3cccc(C)n3)nc2c1")
812

Ask: Given the entry Cc1cccc(-c2nc3ccccc3[nH]2)n1 , report its measured LD50.
Result: 3250
